Test system: Micrococcus flavus
assay.remarks: Antimicrobial activity against Micrococcus flavus at 1 umol/spot after 18 hrs by TLC-bioautographic method
Type: functional
Active and inactive are the calls of the source. The rule behind the calls is not given here.
measured.attribute: inhibition zone (IZ)

>>> value("CC(=O)N1N=C(c2ccc(Nc3nc(Nc4ccccc4)nc(Nc4ccccc4)n3)cc2)CC1c1ccco1 (centres undefined)")
"inactive"
>>> value("COc1ccccc1C1CC(c2ccc(Nc3nc(Nc4ccccc4)nc(Nc4ccccc4)n3)cc2)=NN1C(C)=O (centres undefined)")
"inactive"
>>> value("CC(=O)N1N=C(c2ccc(Nc3nc(Nc4ccccc4)nc(Nc4ccccc4)n3)cc2)CC1c1ccc([N+](=O)[O-])cc1 (centres undefined)")
"0.07 millimeter"
>>> value("O=C(/C=C/c1cccs1)c1ccc(Nc2nc(Nc3ccccc3)nc(Nc3ccccc3)n2)cc1")
"inactive"

====

Test system: Staphylococcus aureus
assay.remarks: Antimicrobial activity against Staphylococcus aureus after 24 hrs by microdilution technique
Assay type: functional
I'd appreciate it if you marked entries y when MIC is lower than 400 µM and n when it is not.

>>> category_label("CC(=O)N1N=C(c2ccc(Nc3nc(Nc4ccccc4)nc(Nc4ccccc4)n3)cc2)CC1c1cccs1 (stereo not drawn)")
"y"
>>> category_label("N#Cc1c(-c2cccs2)cc(-c2ccc(Nc3nc(Nc4ccccc4)nc(Nc4ccccc4)n3)cc2)nc1N")
"y"
>>> category_label("Nc1nc(-c2ccc(Nc3nc(Nc4ccccc4)nc(Nc4ccccc4)n3)cc2)cc(-c2ccco2)n1")
"y"
>>> category_label("CC(=O)N1N=C(c2ccc(Nc3nc(Nc4ccccc4)nc(Nc4ccccc4)n3)cc2)CC1c1ccco1 (stereo not drawn)")
"n"
>>> category_label("O=C(/C=C/c1ccco1)c1ccc(Nc2nc(Nc3ccccc3)nc(Nc3ccccc3)n2)cc1")
"n"
>>> category_label("O=C(/C=C/c1ccc([N+](=O)[O-])cc1)c1ccc(Nc2nc(Nc3ccccc3)nc(Nc3ccccc3)n2)cc1")
"y"
>>> category_label("COc1ccccc1C1CC(c2ccc(Nc3nc(Nc4ccccc4)nc(Nc4ccccc4)n3)cc2)=NN1C(C)=O (stereo not drawn)")
"y"

====

Test system: Enterobacter cloacae
assay.remarks: Antimicrobial activity against Enterobacter cloacae at 1 umol/spot after 18 hrs by TLC-bioautographic method
Format: functional
The source made the active and inactive calls. The calls are words filed in the database; no cut-off is given here.
measured.attribute: inhibition zone (IZ)

>>> value("N#Cc1c(-c2cccs2)cc(-c2ccc(Nc3nc(Nc4ccccc4)nc(Nc4ccccc4)n3)cc2)nc1N")
"0.08 millimeter"
>>> value("Nc1nc(-c2ccc(Nc3nc(Nc4ccccc4)nc(Nc4ccccc4)n3)cc2)cc(-c2ccco2)n1")
"0.08 millimeter"
>>> value("COc1ccccc1C1CC(c2ccc(Nc3nc(Nc4ccccc4)nc(Nc4ccccc4)n3)cc2)=NN1C(C)=O (stereo unspecified)")
"0.08 millimeter"
>>> value("N#Cc1c(-c2ccc(Cl)cc2)cc(-c2ccc(Nc3nc(Nc4ccccc4)nc(Nc4ccccc4)n3)cc2)nc1N")
"0.08 millimeter"
>>> value("CC(=O)N1N=C(c2ccc(Nc3nc(Nc4ccccc4)nc(Nc4ccccc4)n3)cc2)CC1c1cccs1 (stereo unspecified)")
"0.1 millimeter"
>>> value("N#Cc1c(-c2ccc([N+](=O)[O-])cc2)cc(-c2ccc(Nc3nc(Nc4ccccc4)nc(Nc4ccccc4)n3)cc2)nc1N")
"0.09 millimeter"
>>> value("CC(=O)N1N=C(c2ccc(Nc3nc(Nc4ccccc4)nc(Nc4ccccc4)n3)cc2)CC1c1ccc(Cl)cc1 (stereo unspecified)")
"0.09 millimeter"
>>> value("CC(=O)N1N=C(c2ccc(Nc3nc(Nc4ccccc4)nc(Nc4ccccc4)n3)cc2)CC1c1ccc([N+](=O)[O-])cc1 (stereo unspecified)")
"0.09 millimeter"
>>> value("Nc1nc(-c2ccc(Cl)cc2)cc(-c2ccc(Nc3nc(Nc4ccccc4)nc(Nc4ccccc4)n3)cc2)n1")
"inactive"
>>> value("O=C(/C=C/c1ccc([N+](=O)[O-])cc1)c1ccc(Nc2nc(Nc3ccccc3)nc(Nc3ccccc3)n2)cc1")
"0.09 millimeter"
>>> value("COc1ccccc1-c1cc(-c2ccc(Nc3nc(Nc4ccccc4)nc(Nc4ccccc4)n3)cc2)nc(N)n1")
"inactive"

FYI, the data here is from ChEMBL document CHEMBL1154716.
